system: A549; assay: NCI tumour cell line growth inhibition, 48 h
Activity calls are given as the source filed them. No stated cut-off is given here; in the data, active = GI50 up to about 1.1 µM and inactive = higher.
A collection of compounds and their measured GI50

| Compound | Result |
| --- | --- |
| CC(NC(=N)N)C(=O)O (stereo unspecified) | > 100 µM (inactive) |
| CN(C)/N=N/c1cccc(C(N)=O)c1 | > 100 µM (inactive) |
| FC(F)(F)C(C1=NC(C(F)(F)F)(C(F)(F)F)N=C(N2CCOCC2)O1)C(F)(F)F | 18.5 µM (inactive) |
| COC(=O)c1sc(=S)sc1SCc1ccc(CSc2sc(=S)sc2C(=O)OC)cc1 | > 100 µM (inactive) |
| COc1ccc(C2c3cc4c(cc3OC(N3CCOCC3)C2C)OCO4)c(OC)c1 (stereo unspecified) | 7.43 µM (inactive) |

Problem: Entry C=CCC1C(=O)CC2(C)CC(=O)C(CC=C)C12C (stereo unspecified) : reported GI50 = ?
Result: > 100 µM (inactive)

Problem: Then `COCCOCCOC1=CC(=O)c2c(O)ccc(O)c2C1=O` ?
Result: 1.75 µM (inactive)

Problem: And the next one, `O=C(Nc1ccccc1)c1cc(S(=O)(=O)Nc2n[nH]c(=O)n2-c2ccccc2)c(S)cc1Cl` ?
Result: > 100 µM (inactive)

Problem: Next up: `CCOC(=O)c1cc2c(=Cc3ccc(N(C)C)cc3)c3ccccc3n2[n+]1C`
Result: 3.71 µM (inactive)

Problem: Same lookup for `CN(/N=C\c1ccnc2ccccc12)c1ccccc1` , please.
Result: 21.6 µM (inactive)

Problem: Check `O=C(O/N=C1/CCCC/C1=C\c1ccccc1)c1ccccc1` too.
Result: > 100 µM (inactive)

###

tested on: Malme-3M; experiment: NCI tumour cell line growth inhibition, 48 h
Active and inactive are the calls of the source. Cut-off read from the data, not from the text of the source: active = GI50 up to about 1.1 µM and inactive = higher.
Reply using exactly one outcome from 1 = active, 0 = inactive

| Molecule | Target | Assigned label |
| --- | --- | --- |
| C=C(CN1CC2C[C@](C(=O)OC)(c3cc4ccccc4[nH]3)C1C(OC)C2OC)S(=O)(=O)c1ccccc1 (stereo not given in full) | Malme-3M | 1 |
| CSc1nc(C#N)c(/N=C\N(C)C)n1C | Malme-3M | 0 |
| CC(C)c1cc(C(C)C)c(S(=O)(=O)NN)c(C(C)C)c1 | Malme-3M | 0 |

Problem: Look up the recorded call for `Cc1c2ccnc(C(N)=O)c2c(C)c2c1[nH]c1ccccc12` in this test.
Result: 0

Problem: What about `CC(=O)NNc1nc(C)c(C(=O)NNC(=O)C(=O)Nc2c(Cl)cc([N+](=O)[O-])cc2Cl)s1` ?
Result: 0

Problem: How about this molecule: `Cn1c2ccccc2c2ccc3c(c21)C(=O)c1ccc2c4ccccc4n(C)c2c1C3=O`
Result: 0

Problem: Same for `CC(C)=C=CC(C)(C)NS(=O)(=O)NC(C)(C)C=C=C(C)C`
Result: 0

Problem: Repeat with `Cn1cnc(CCc2ccccc2)n1`
Result: 0

Problem: Follow-up entry: `C/C(=C\COc1ccc2ccc(=O)oc2c1)C1=CC(=O)C(C)(C)O1`
Result: 0

Problem: Would you mind doing `COc1cc(NCc2ccc3n2-c2ccccc2OC3)cc(OC)c1OC` as well?
Result: 0

Problem: Please do the same for CC(=O)OC(C)C1C2=C(C(=O)CC1(C)O)C(=O)c1c(ccc(-c3ccc4c(c3O)C(=O)C3=C(C4=O)C(C(C)OC(C)=O)C(C)(O)CC3=O)c1O)C2=O (stereo not given) as well.
Result: 1

Problem: Please answer likewise for `Oc1ccccc1/C=N/c1nc2cc3sc(/N=C/c4ccccc4O)nc3cc2s1`
Result: 0

Problem: Query CC1(CNCc2ccccc2)CC(CCc2ccccc2)N(C(=O)c2ccc([N+](=O)[O-])cc2)C1Cc1ccc(O)cc1 (stereo not given) next
Result: 0

Problem: Now this one: `CN1CCN(c2ccc([N+](=O)[O-])c3no[n+]([O-])c23)CC1`
Result: 1

Problem: Also COc1cc(/C=C2\C(=O)N(c3ccc(NC(C)=O)cc3)C(c3ccccc3)S2(=O)=O)cc(OC)c1OC (stereo not given) , if possible.
Result: 0

Problem: Also check `Cc1nc2ccc(C(F)(F)F)cc2nc1NCc1ccc(Cl)c(Cl)c1`
Result: 0

Problem: Cool, now CC(OP(=O)(O)O)C(N)C(=O)O (stereo not given)
Result: 0

Problem: Request: `COC(CNC(=O)CNC(=O)c1ccc(C(F)(F)F)cc1)OC`
Result: 0

Problem: What do you get for O=C(CC(=O)C(=O)Nc1ccccc1)CC(c1ccccc1)c1c(O)c2ccccc2oc1=O (stereo not given) ?
Result: 0

Problem: How about `O=[N+]([O-])c1cc(/C=N/NS(=O)(=O)c2ccc(F)cc2)c(O)c([N+](=O)[O-])c1` ?
Result: 0

Problem: Repeat with O=C(CCc1ccc(O)cc1)c1c(O)cc(O)cc1OC1OC(CO)C(O)C(O)C1O (stereo not given)
Result: 0

Problem: Similarly, `CCOC(=O)/C=C(/CN1C(=O)c2ccccc2C1=O)c1ccccc1` ?
Result: 0
